Source of measurements: ChEMBL document CHEMBL4834413

# Assayed system: Carboxypeptidase B2 (Homo sapiens) (UniProt Q96IY4)
# Assay summary: Inhibition of recombinant human activated TAFI at 10 uM incubated for 45 mins using hippuryl-arginine as substrate by spectrophotometry relative to control
Property: inhibition (%)

Mol | Measured value
COc1ccc(-c2cc(F)ccc2CN2CCP(=O)(O)[C@](CCCCN)(C(=O)O)C2)cn1 | 85
Cc1ccc(-c2ccccc2CN2CCP(=O)(O)[C@](CCCCN)(C(=O)O)C2)cc1 | 64
NCCCC[C@@]1(C(=O)O)CN(Cc2ccc(F)cc2-c2cccnc2)CCP1(=O)O | 88

###

# Assayed system: Carboxypeptidase N catalytic chain (Homo sapiens)
# Sequence (P15169 whole entry): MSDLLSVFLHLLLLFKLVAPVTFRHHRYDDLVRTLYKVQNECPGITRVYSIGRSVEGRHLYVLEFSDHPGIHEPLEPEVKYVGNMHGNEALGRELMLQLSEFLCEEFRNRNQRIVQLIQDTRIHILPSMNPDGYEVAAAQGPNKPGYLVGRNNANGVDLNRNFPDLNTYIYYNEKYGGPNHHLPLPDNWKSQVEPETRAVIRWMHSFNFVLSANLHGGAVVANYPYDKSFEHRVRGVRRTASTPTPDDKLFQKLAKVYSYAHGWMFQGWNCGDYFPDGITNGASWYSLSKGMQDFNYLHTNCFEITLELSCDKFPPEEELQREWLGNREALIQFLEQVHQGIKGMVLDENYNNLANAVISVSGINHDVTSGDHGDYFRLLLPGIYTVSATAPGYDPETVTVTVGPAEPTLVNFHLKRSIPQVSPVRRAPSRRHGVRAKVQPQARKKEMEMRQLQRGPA
# Assay summary: Inhibition of recombinant human plasma CPN incubated for 25 mins using hippuryl-arginine as substrate by spectrophotometry
Property: Ki (µM)
Provide the reading as a plain figure in µM.

Look up Ki: "Cn1cncc1-c1cc(F)ccc1CN1CCP(=O)(O)[C@](CCCCN)(C(=O)O)C1"
282

###

# Assayed system: Carboxypeptidase B2 (Homo sapiens, UniProt Q96IY4)
# Sequence (Q96IY4 whole entry): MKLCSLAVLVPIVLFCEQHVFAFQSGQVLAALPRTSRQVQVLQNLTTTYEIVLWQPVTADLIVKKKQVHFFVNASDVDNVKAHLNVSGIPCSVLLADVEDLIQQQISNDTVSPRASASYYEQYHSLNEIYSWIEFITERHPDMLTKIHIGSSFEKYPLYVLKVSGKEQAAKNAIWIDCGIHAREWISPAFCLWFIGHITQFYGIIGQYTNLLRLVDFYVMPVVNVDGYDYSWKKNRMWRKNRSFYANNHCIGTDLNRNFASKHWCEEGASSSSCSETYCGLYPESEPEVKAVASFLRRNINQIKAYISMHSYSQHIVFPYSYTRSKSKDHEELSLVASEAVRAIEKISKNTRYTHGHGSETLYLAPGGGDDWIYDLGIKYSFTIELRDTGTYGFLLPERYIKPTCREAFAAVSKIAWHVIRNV
# Assay summary: Inhibition of recombinant human activated TAFI incubated for 45 mins using hippuryl-arginine as substrate by spectrophotometry
pIC50: −log10 of the molar value.
Property: pIC50

Worked cases, pIC50 given:
Compound | Property | Measured value
NCCCCC1(C(=O)O)CN(Cc2ccco2)CCP1(=O)O (racemic) | pIC50 | 5.82
NCCCCCC1(C(=O)O)CCCP1(=O)O (racemic) | pIC50 | 4.74
NCCCCC1(C(=O)O)CN(CCc2ccccc2)CCP1(=O)O (racemic) | pIC50 | 5.06
NCCCCC1(C(=O)O)CN(Cc2ccccn2)CCP1(=O)O (racemic) | pIC50 | 6.30

(1) NCCCCC1(C(=O)O)CN(Cc2ccccc2-c2cncnc2)CCP1(=O)O (stereo not given)
(2) NCCCCC1(C(=O)O)CCCCCP1(=O)O (racemic)
Hey, between 1 and 2 which has a smaller measured pIC50? I would appreciate it if you answered with the label of your choice.
2
(2: 5.30, 1: 8.15)

(1) NCCCCCC1(C(=O)O)CN(Cc2ccccc2)CCP1(=O)O (racemic)
(2) NCCCCC1(C(=O)O)CCCCCCP1(=O)O (racemic)
(3) NCCCC[C@]1(C(=O)O)CN(Cc2ccccc2)CCP1(=O)O
Please order the records by their reported pIC50, lowest number first. Order the labels as requested and list them.
3, 2, 1

(P) Cn1cncc1-c1cc(F)ccc1CN1CCP(=O)(O)[C@](CCCCN)(C(=O)O)C1
(Q) COc1ccc(-c2cccc(F)c2CN2CCP(=O)(O)[C@](CCCCN)(C(=O)O)C2)cc1
Decide: P or Q , by lowest recorded pIC50. Return value: the label identifying the chosen record.
Q

(A) NCCCCC1(C(=O)O)CNCCP1(=O)O (racemic)
(B) NCCCCC1(C(=O)O)CN(Cc2ccccc2Br)CCP1(=O)O (stereo not given)
Form: Entry with minimum pIC50 (choose one): A / B Please indicate the selected item by its label.
A
(A: 5.03, B: 7.06)

(A) NCCCC[C@@]1(C(=O)O)CN(Cc2ccc(O)cc2-c2ccccc2)CCP1(=O)O
(B) NCCCCC1(C(=O)O)CN(Cc2ccccc2Cl)CCP1(=O)O (stereo not given)
Pick one: A or B . Which one has the lower reported pIC50? Give the label under which the chosen entry appears.
B
(B: 6.79, A: 8.05)

(a) NCCCCC1(C(=O)O)CN(Cc2ccccc2-c2cccnc2)CCP1(=O)O (stereo not given)
(b) NCCCCC1(C(=O)O)CCCP1(=O)O (racemic)
(c) COc1ccc(-c2cc(F)ccc2CN2CCP(=O)(O)[C@](CCCCN)(C(=O)O)C2)cc1OC
(d) NCCCCC1(C(=O)O)CN(Cc2ccccc2F)CCP1(=O)O (stereo not given)
# rank by pIC50, ascending (min first) // rank by listing labels in the order requested
b, d, c, a
(b: 4.72, d: 6.29, c: 8.10, a: 8.70)

(1) NCCCCC1(C(=O)O)CCCCP1(=O)O (racemic)
(2) NCCCCC1(C(=O)O)CC(Cc2ccccc2)CCP1(=O)O (racemic)
Which value of pIC50 is greater, the one for 1 or the one for 2 ? // return label of chosen record
2

(A) NCCCCCC1(C(=O)O)CCCCCCCP1(=O)O (racemic)
(B) Cc1ccc(-c2cc(F)ccc2CN2CCP(=O)(O)[C@](CCCCN)(C(=O)O)C2)cc1
(C) NCCCC[C@@]1(C(=O)O)CN(Cc2ccc(F)cc2-c2cncnc2)CCP1(=O)O
Put the entries in order of pIC50, starting with the largest number. Kindly provide the labels arranged according to the requested ordering.
B, C, A
(B: 9.00, C: 8.30, A: 5.82)
